- TARGET_DESC: HCV NS3 protease, genotype 1a (Hepatitis C virus genotype 1a, UniProt P26664)
- Construct: NS3 protease catalytic domain (amino acids 1 to 192); MGAQH expression leader (5 aa), or alternatively the 15 aa His tag […]; made in house; host or cells: E. coli BL21 (DE3)
- Format: biochemical
- CONDITION_SET: substrate B
- Experimental: Endpoint HPLC based HCV protease assay: HCV protease (5 nM) was incubated in 50 mM Tris pH 7.5, 0.1% maltoside, 5 mM DTT and appropriate amounts of glycerol, NS4A peptide, and substrate. […] The product peaks were detected by fluorescence excitation at 350 nm and emission at 500 nm. […] Comparison of the effects of Q9692 on the hydrolysis of a P6-P3′ ester substrate (FIG. 2A) and a P6-P7′ substrate (FIG. 2B) and P6-P3′ amide substrate (FIG. 2C) were determined. […]
Where a SMILES comes first, the peptide text is derived from it. [ ]: non-standard residue; d: D form. Dip = N[C@H](C(=O)O)C(c1ccccc1)c1ccccc1; Cha = N[C@@H](CC1CCCCC1)C(=O)O
MEASURED_ENDPOINT: (S = P6-P7′) Inhibition (+) / Activation (−)

Below: 6 compounds and their reported (S = P6-P7′) Inhibition (+) / Activation (−).
INSERT INTO assay_data (compound, val) VALUES
  ('CC(=O)N[C@@H](CC(=O)O)C(=O)N[C@@H](CCC(=O)O)C(=O)N[C@H](C(N)=O)C(c1ccccc1)c1ccccc1 [Q230, Ac-Asp-Glu-Dpa-NH2] (Ac-Asp-Glu-[Dip]-NH2)', '+'),
  ('CC(=O)N[C@@H](CC(=O)O)C(=O)N[C@@H](CCC(=O)O)C(=O)N[C@H](C(=O)N[C@@H](CCC(=O)O)C(N)=O)C(c1ccccc1)c1ccccc1 [Q229, Ac-Asp-Glu-Dpa-Glu-NH2] (Ac-DE[Dip]E-NH2)', '+'),
  ('CC(=O)N[C@@H](CC(=O)O)C(=O)N[C@@H](CCC(=O)O)C(=O)N[C@H](C(=O)N[C@@H](CCC(=O)O)C(=O)N[C@@H](CC1CCCCC1)C(N)=O)C(c1ccccc1)c1ccccc1 [Q228, Ac-Asp-Glu-Dpa-Glu-Cha-NH2] (Ac-DE[Dip]E[Cha]-NH2)', '+'),
  ('CC(=O)N[C@@H](CCC(=O)O)C(=O)N[C@H](C(=O)N[C@@H](CCC(=O)O)C(=O)N[C@@H](CC1CCCCC1)C(=O)N[C@@H](CS)C(=O)O)C(c1ccccc1)c1ccccc1 [Q297, Ac-Glu-Dpa-Glu-Cha-Cys-OH] (Ac-E[Dip]E[Cha]C-OH)', '+'),
  ('CC(=O)N[C@@H](CC(=O)O)C(=O)N[C@@H](CCC(=O)O)C(=O)N[C@H](C(=O)N[C@@H](CCC(=O)O)C(=O)N[C@@H](CC1CCCCC1)C(=O)N[C@@H](CS)C(=O)O)C(c1ccccc1)c1ccccc1 [Q9692, Ac-Asp-Glu-Dpa-Glu-Cha-Cys—OH] (Ac-DE[Dip]E[Cha]C-OH)', '+'),
  ('CC(=O)N[C@H](C(=O)N[C@@H](CCC(=O)O)C(=O)N[C@@H](CC1CCCCC1)C(=O)N[C@@H](CS)C(=O)O)C(c1ccccc1)c1ccccc1 [Q296, Ac-Dpa-Glu-Cha-Cys-OH] (Ac-[Dip]E[Cha]C-OH)', '−');

Inquiry: Query for HCV NS3 protease, genotype 1a (Hepatitis C virus genotype 1a, UniProt P26664): what (S = P6-P7′) Inhibition (+) / Activation (−) does the record show for CC(=O)N[C@@H](CCC(=O)O)C(=O)N[C@@H](CC1CCCCC1)C(=O)N[C@@H](CS)C(=O)O [Q295, Ac-Glu-Cha-Cys-OH] (Ac-Glu-[Cha]-Cys-OH) ?
Reply text: +

Inquiry: # get_value(readout= (S = P6-P7′) Inhibition (+) / Activation (−), system= HCV NS3 protease, genotype 1a (Hepatitis C virus genotype 1a, UniProt P26664)) for CC(=O)N[C@@H](CCC(=O)O)C(=O)N[C@H](C(=O)N[C@@H](CCC(=O)O)C(=O)N[C@@H](CC1CCCCC1)C(N)=O)C(c1ccccc1)c1ccccc1 [Q240, Ac-Glu-Dpa-Glu-Cha-NH2] (Ac-E[Dip]E[Cha]-NH2)
Reply text: −

Inquiry: Provide the documented (S = P6-P7′) Inhibition (+) / Activation (−) with HCV NS3 protease, genotype 1a (Hepatitis C virus genotype 1a, UniProt P26664) as the system for CC(=O)N[C@H](C(=O)N[C@@H](CCC(=O)O)C(=O)N[C@@H](CC1CCCCC1)C(N)=O)C(c1ccccc1)c1ccccc1 [Q236, Ac-Dpa-Glu-Cha-NH2] (Ac-[Dip]-Glu-[Cha]-NH2)
Reply text: −
